target: acetylcholine receptor; test: SPR, AchR immobilised on chip, peptide at 10 uM
Lab note: cut-off is 80 RU. Strictly less in Binding affinity (RU) is YES. Exactly 80 RU or more is NO.

(Q) For RSYCR [5mer-249] , is the recorded Binding affinity (RU) below the cut-off of 80 RU?
(A) YES

(Q) Also check KLVSR [5mer-597]
(A) YES

(Q) One more binder: RRVLR [5mer-261]
(A) YES

(Q) For RWQCR [5mer-265] then?
(A) YES

(Q) Please answer likewise for RSIYR [5mer-573]
(A) NO

(Q) Can you handle KSRCR [5mer-262] next?
(A) YES

(Q) What do you get for RGYYR [5mer-290] ?
(A) YES

(Q) Try the binder RVIYK [5mer-556]
(A) YES

(Q) Try this binder too: RGYTR [5mer-580]
(A) YES

(Q) Another binder to check: RQYYR [5mer-293]
(A) NO

(Q) Try this binder next: RLVLK [5mer-563]
(A) YES

(Q) Same again, this time with RLFRK [5mer-576]
(A) YES

(Q) Then what about the binder KLVCK [5mer-292] ?
(A) YES

(Q) Thanks! And RGVCK [5mer-256] ?
(A) YES

(Q) Same for KRLLK [5mer-267]
(A) YES

(Q) # repeat for KSIYR [5mer-298]
(A) YES

(Q) Another binder to check: KQYLK [5mer-593]
(A) YES

(Q) And then KQRRK [5mer-557] , what is it?
(A) NO

(Q) Item: RLIRK [5mer-259]
(A) YES

(Q) Can you handle KVYRR [5mer-260] next?
(A) YES

(Q) Now the binder KWVYK [5mer-283]
(A) YES

(Q) Same question, RQFSR [5mer-250] this time
(A) YES

(Q) Please answer likewise for RGRYR [5mer-271]
(A) YES

(Q) // next record KWILK [5mer-280]
(A) YES

(Q) For KRQYK [5mer-258] then?
(A) NO

(Q) Same read-out for RWRYK [5mer-558] ?
(A) NO

(Q) Moving on to the next binder: RWQYR [5mer-551]
(A) YES

(Q) Try this binder too: KWYRK [5mer-264]
(A) YES

(Q) And then RGFLK [5mer-281] , what is it?
(A) YES

(Q) What about this binder? RSFTR [5mer-588]
(A) YES
